Answer each item with its documented melting point.

For every item below, please supply its melting point.
1. O=C1c2ccccc2Cc2c(O)cccc21
2. COC(=O)CC[C@H](NC(=O)c1ccc(N(C)CCc2c(NC(C)=O)nc(NC(C)=O)[nH]c2=O)cc1)C(=O)OC
3. CC(=O)Nc1cccc(-c2csc(NC(N)=S)n2)c1C
4. C[N+]([O-])=C(Cn1ccnc1)c1ccco1
5. Cc1cc(Oc2ccc(C(=O)C=CC(=O)O)cc2)ccc1Cl

1: 230 to 233 °C; 2: 168 to 175 °C; 3: 228 to 230 °C; 4: 120 to 123 °C; 5: 135 to 136 °C

Hello, the source for this data is a melting point compilation (Tetko et al.; mined from patent text by program, amines drawn as free bases though some values may be those of a salt), in case you need it.
